Numbers sourced from PubChem BioAssay (NCI).

Provide the reported TGI of each item.
Test system: UO-31 renal
Assay: NCI tumour cell line growth inhibition, 48 h

molecule: CNC(=O)c1ccc(N2C(=S)N(c3cnc(C#N)c(C(F)(F)F)c3)C(=O)C23CCC3)cc1F
measured_on: UO-31 renal
TGI: > 100 µM
//
molecule: O=C(O)CCNCC(=O)O
measured_on: UO-31 renal
TGI: > 100 µM
//
molecule: CN(C)C(C1=C(O)C(c2ccccc2)N(c2ccccc2)C1=O)N1CCOCC1 (centres undefined)
measured_on: UO-31 renal
TGI: > 10 µM
//
molecule: CCc1nc(N)nc(N)c1-c1ccc(Cl)c([N+](=O)[O-])c1
measured_on: UO-31 renal
TGI: > 100 µM

Each molecule below has a recorded value; state its TGI.
1. CCOc1cc(C2CC(c3ccc(NS(=O)(=O)c4cc([N+](=O)[O-])ccc4C)cc3)=NN2S(=O)(=O)c2cc([N+](=O)[O-])ccc2C)ccc1O (centres undefined)
2. N#Cc1ccc(C(O)C(F)(F)c2nc3ccccc3o2)cc1 (centres undefined)
3. O=C(C(=O)c1cc2ccccc2[nH]1)c1cc2ccccc2[nH]1
4. N#CC12C(=O)N3C(=NC(c4ccco4)NC3c3ccco3)C1(C#N)C(c1ccco1)NC1=C2CCCC1 (centres undefined)
5. N#CC12C(=O)NC(=O)C1(C#N)C1C=CC2CC1 (centres undefined)

Output:
1. > 100 µM
2. > 100 µM
3. > 347 µM
4. > 100 µM
5. > 100 µM
